- System: P388 leukemia ip, CD2F1 mice, survival T/C
- measurement_protocol: NCI In Vivo Anticancer Drug Screen. Data for tumor model P388 Leukemia (intraperitoneal) in CD2F1 (CDF1) mice
- test_context: endpoint: median survival time; dose: 100.0 mg/kg/injection; schedule: Q04DX002 (ip); vehicle: saline; higher = longer survival
Toxic doses and inconclusive results are not listed.
readout_name: T/C

response.value for Cc1ccc(S(=O)(=O)c2cnc(N3CCN(C)CC3)nc2N)cc1 (field: T/C) = 100 % of control

I have 6 molecules here; please give me T/C for each one.
1. CC(=O)NC(C(=O)N1CCCC1)=C(C)C
2. CC1CCCN2C(=O)CN(N3CCOCC3)CC(=O)N12 (configuration not stated)
3. C[n+]1cccc(/C=N/O)c1
4. N=C(N)SCC(=O)Nc1nc(NC(=O)CSC(=N)N)nc(NC(=O)CSC(=N)N)n1
5. COc1ccc2c(c1)N(C(=O)CN1CCN(C)CC1)c1ccccc1S2
6. NNC(=O)CCC(=O)NN

### Response
1: 100 % of control; 2: 102 % of control; 3: 100 % of control; 4: 101 % of control; 5: 99 % of control; 6: 101 % of control

* * *

- Tested on: P388 leukemia ip, CD2F1 mice, survival T/C
- measurement_protocol: NCI In Vivo Anticancer Drug Screen. Data for tumor model P388 Leukemia (intraperitoneal) in CD2F1 (CDF1) mice
- test_context: endpoint: median survival time; dose: 240.0 mg/kg/injection; schedule: Q01DX005 (ip); vehicle: saline; higher = longer survival
Toxic doses and inconclusive results are not listed. Peptide text beside a SMILES is read from it.
Kindly supply the reported T/C values for the records listed here.

Form: compound = CCCCCc1nc2c(c3c1CCCC3)CCCC2 ; T/C = 107 % of control

Please state, for each entry, its recorded T/C.
1. CCC(C)C(N)C(=O)N1CCCC1C(=O)O (stereo not drawn) (H-Ile-Pro-OH; configuration not given here)
2. CC1=NNC(=O)CC1C(O)c1ccccc1 (centres undefined)
3. COc1nc2c(nc(N)n2C2OC(COC(C)=O)C(OC(C)=O)C(OC(C)=O)C2OC(C)=O)c(=O)n1C (centres undefined)

### Response
["102 % of control", "107 % of control", "92 % of control"]

For each entry beneath this line, provide reported T/C.
1. OCc1cnccc1Br
2. COC(=O)C1CCCN1 (centres undefined)
3. Oc1[nH]c2ccccc2c1N=NC1=NCCN1
4. C/C(C/C(C)=N/C(N)=S)=N\C(N)=S
5. COC(=O)C1(CS(C)(=O)=O)NC(=S)NC(=O)C1C#N (centres undefined)

### Response
1. 99 % of control
2. 104 % of control
3. 87 % of control
4. 100 % of control
5. 91 % of control

State the recorded T/C for every item in the following list.
1. COC(=O)C1(CC(=O)c2ccncc2)NC(=S)NC(=O)C1C#N (centres undefined)
2. Cc1c(C(=O)NCCN(C)C)n(C)c(=O)c2ccccc12
3. CCN(CC)C(C)(C)C(=O)/C=C/c1ccc(Cl)c(Cl)c1

### Response
94 % of control
94 % of control
100 % of control

Return reported T/C values for all items listed beneath this line.
1. COc1cc(OC)c(C(=O)CCN(C)C)cc1OC
2. C=CC1OCCC(C)O1 (centres undefined)

### Response
["114 % of control", "97 % of control"]

* * *

- Test system: P388 leukemia ip, CD2F1 mice, survival T/C
- measurement_protocol: NCI In Vivo Anticancer Drug Screen. Data for tumor model P388 Leukemia (intraperitoneal) in CD2F1 (CDF1) mice
- test_context: endpoint: median survival time; dose: 200.0 mg/kg/injection; schedule: Q01DX009 (ip); vehicle: other; higher = longer survival
Inconclusive results and toxic doses are left out.
readout_name: T/C

Could you tell me T/C for each of these molecules? They are listed below.
1. Cc1cc(Cl)c2ccccc2c1N
2. O=C(Oc1ccc(NC(=O)c2cc3c(cc2Br)OCO3)cc1)c1ccccc1

### Response
1. 105 % of control
2. 97 % of control

For every listed record, write down its T/C.
1. C=CCCCC(=O)CCCCO
2. O=NC=C1N(O)C=CN1O
3. CSCCC(N)C(=O)O (centres undefined)
4. COc1ccc([N+](=O)[O-])c(O)c1OC
5. COc1ccc(CCN(C=O)c2ccc(OC)c(OC)c2)cc1OC
6. O=C1/C(=C/c2cccnc2)Cc2ccccc21
7. OCC(O)C(O)Cc1cnc(C(O)C(O)C(O)CO)cn1 (centres undefined)

### Response
101 % of control
102 % of control
110 % of control
96 % of control
108 % of control
94 % of control
102 % of control

* * *

- Tested on: P388 leukemia ip, CD2F1 mice, survival T/C
- measurement_protocol: NCI In Vivo Anticancer Drug Screen. Data for tumor model P388 Leukemia (intraperitoneal) in CD2F1 (CDF1) mice
- test_context: endpoint: median survival time; dose: 400.0 mg/kg/injection; schedule: Q04DX003 (ip); vehicle: saline; higher = longer survival
Inconclusive results and toxic doses are left out.
readout_name: T/C

Sample CCOC(=O)C(NC(C)=O)(C(=O)OCC)c1ccc(N)cn1 ; T/C observed: 98 % of control

Note to self: T/C recorded for CCCNC12CN3CN(CN(C3)C1)C2 was 95 % of control

Item: COC(=O)/C(C#N)=C(C)/C=C/c1ccc(OC)cc1 | T/C: 98 % of control

For Oc1ccccc1C(Nc1nc2ccccc2s1)c1ccc2cccnc2c1O (centres undefined) the molecule record lists T/C as 91 % of control

Data point: CC1C/C=C\COC(=O)CC(C)(C)CC1=O (centres undefined) ; T/C = 95 % of control

Hi! Can you tell me T/C for each of these molecules?
1. [Br][Rh][Br].[NH-]c1nc2c(ccc3ccccc32)s1.[NH-]c1nc2c(ccc3ccccc32)s1.[NH-]c1nc2c(ccc3ccccc32)s1.[NH-]c1nc2c(ccc3ccccc32)s1
2. CCOC(=O)NC(NC(=O)OCC)c1ccncc1
3. CCc1nc2cc(C)ncn2n1
4. Cc1ccc(S(=O)(=O)CC2(Br)CCc3ccccc3C2=O)cc1 (centres undefined)

### Response
1: 98 % of control; 2: 99 % of control; 3: 101 % of control; 4: 95 % of control

* * *

- Tested on: P388 leukemia ip, CD2F1 mice, survival T/C
- measurement_protocol: NCI In Vivo Anticancer Drug Screen. Data for tumor model P388 Leukemia (intraperitoneal) in CD2F1 (CDF1) mice
- test_context: endpoint: median survival time; dose: 100.0 mg/kg/injection; schedule: Q01DX009 (ip); vehicle: saline with Tween-80; higher = longer survival
Inconclusive results and toxic doses are left out.
readout_name: T/C

Recorded results for 4 molecules are shown here.
// O=[N+]([O-])c1ccc(-c2nc(/C=N/N3CCOCC3)cs2)s1 : T/C value = 114 % of control

According to the records, this molecule CCCCc1ccc(C)c(O)c1 displays T/C of 98 % of control

Recorded T/C (molecule Cc1sc2ccccc2[n+]1CCC(=O)O ): 100 % of control

What the record says about O=C1CCSC(=S)N1c1ccc(Cl)c([N+](=O)[O-])c1 : T/C is 98 % of control

Okay, now this molecule:
Please fill in: T/C reported for Cc1ccc(C(=O)C2CC(Br)C(Br)CC2C(=O)c2ccc(C)cc2)cc1 (stereo not given) = 91 % of control

* * *

- Test system: P388 leukemia ip, CD2F1 mice, survival T/C
- measurement_protocol: NCI In Vivo Anticancer Drug Screen. Data for tumor model P388 Leukemia (intraperitoneal) in CD2F1 (CDF1) mice
- test_context: endpoint: median survival time; dose: 200.0 mg/kg/injection; schedule: Q01DX005 (ip); vehicle: Klucel (hydroxypropylcellulose) (HPC); higher = longer survival
Toxic doses and inconclusive results are not listed. Peptide text beside a SMILES is read from it.
Hi there, I'd appreciate the recorded T/C for every entry that follows.

Worked set:
Record COc1ccc(-c2cnnc3c(-c4cccc(C(F)(F)F)c4)cnn23)cc1 , field T/C: 89 % of control

So, CCc1c2c(cc3c1[nH]c1ccccc13)C(=O)OC2=O ? Its T/C was 98 % of control

Data point: CCCCCCCCOP(=O)(CC(CP(=O)(O)OC)P(=O)(O)OC)OCCCCCCCC (stereo not given) ; T/C = 93 % of control

# compound NC(N)=NCCCC(N)C(=O)NC(CCC(=O)O)C(=O)O (stereo not drawn) (H-Arg-Glu-OH; configuration not given here) ; its T/C = 100 % of control

Turning now to a further record.
Per the records, this compound ( COc1c(C)cc(Cc2ccc3c(c2)OCO3)cc1C ) has T/C equal to 113 % of control
